assay: Assay C: Permeability in CACO-2 cells; type: in vitro ADME; settings: human, pH 7.2; Caco-2, permeability B−A/permeability A−B
Recorded endpoint: efflux ratio

Use these answered entries as a reference point.
Structure smiles	efflux ratio
Cn1cnnc1C1(F)CCN(c2c(C#N)cc(C(F)(F)F)cc2-c2cnc3nc(C(C)(C)C)nn3c2)CC1	6.9
Cn1cnnc1C1CCN(c2c(C#N)cc(Cl)cc2-c2cnc3nn(C(C)(C)C)cc3c2)CC1	21.2
Cn1cnnc1C1CCN(c2c(-c3cnc4nn(C(C)(C)C)cc4c3)ccc(C(F)(F)F)c2C#N)CC1	146
Cn1cnnc1C1(F)CCN(c2c(C#N)cc(F)cc2-c2cnc3nn(C(C)(C)C)c(Cl)c3c2)CC1	1.7

[P] CC(C)Oc1ccc(C#N)c(N2CCC(c3nncn3C)CC2)c1-c1ccc(F)nc1
[Q] Cn1cnnc1C1CCN(c2c(C#N)ccc(OC(F)F)c2-c2ccc(F)nc2)CC1
[R] Cn1cnnc1C1(F)CCN(c2c(-c3cnc4nn(C(C)(C)C)cc4c3)ccc(C(F)(F)F)c2C#N)CC1
Prompt: Order the records so the highest efflux ratio appears first and the lowest last. // respond by listing labels in the order requested
Completion: R, Q, P
(R: 22.9, Q: 3.6, P: 2.4)

[1] COc1ccc(C#N)c(N2CCC(c3nncn3C)CC2)c1-c1ccc(F)nc1
[2] COC(=O)c1cc(C#N)c(N2CCC(c3nncn3C)CC2)c(-c2ccc(F)nc2)c1
[3] Cn1cnnc1C1(F)CCN(c2c(C#N)cc(C(F)(F)F)cc2-c2ccc(F)nc2)CC1
[4] COc1ccc(C#N)c(N2CCC(F)(c3nncn3C)CC2)c1-c1ccc(F)nc1
Prompt: Order each entry by recorded efflux ratio, climbing from the minimum. // respond by listing labels in the order requested
Completion: 3, 4, 1, 2
(3: 1.3, 4: 1.9, 1: 4.4, 2: 9.2)

[a] Cn1cnnc1C1(F)CCN(c2c(C#N)cc(C(F)(F)F)cc2-c2cnc3nc(C(F)(F)F)cn3c2)CC1
[b] Cn1cnnc1C1CCN(c2c(-c3ccc(F)nc3)ccc(F)c2C#N)CC1
[c] Cn1cnnc1C1(F)CCN(c2c(C#N)cc(Cl)cc2-c2cnc3nn(C(C)(C)C)cc3c2)CC1
Prompt: Order the records so the highest efflux ratio appears first and the lowest last. // respond by listing labels in the order requested
Completion: a, b, c
(a: 10.5, b: 6.7, c: 4.5)

[a] Cn1cnnc1C1(F)CCN(c2c(C#N)cc(C(F)(F)F)cc2-c2cnc3nn(C(F)(F)F)cc3c2)CC1
[b] Cn1cnnc1C1(F)CCN(c2c(C#N)cc(F)cc2-c2cnc3nn(C(C)(C)C)cc3c2)CC1
Prompt: For the pair a and b , which member has the lower efflux ratio number? Reply with the label of the item you choose.
Completion: a
(a: 6.7, b: 9.7)

Source listed as patent US20240317712A1.
